Where do these numbers come from? They come from ChEMBL document CHEMBL1138393.

assay: Lipophilicity, log D of the compound; assay type: physicochemical; details: octanol/water
Please note: logD exactly at 3 is 0 (no). Only values below 3 get 1 (yes).

Worked set:
* CN(CCO)c1cncc(C(=O)NCC(C)(C)c2ccccc2)n1 | 1 (yes)
* CN(CCC#N)c1cnc(C(=O)NCC(C)(C)c2ccccc2)cn1 | 1 (yes)
* CC(C)(CNC(=O)c1cnc(N2CCCCC2)cn1)c1ccccc1 | 0 (no)
* O=C(NC1CCCCCC1)c1cnc(N2CCCCC2)cn1 | 0 (no)

Task: In the record for CCN(C)c1cncc(C(=O)NC2Cc3ccccc3C2)n1 , is logD less than 3?
Result: 0 (no)
